- tested.system: T1, human GIP receptor (human, UniProt P48546 22-466)
- T1 sequence (looked up): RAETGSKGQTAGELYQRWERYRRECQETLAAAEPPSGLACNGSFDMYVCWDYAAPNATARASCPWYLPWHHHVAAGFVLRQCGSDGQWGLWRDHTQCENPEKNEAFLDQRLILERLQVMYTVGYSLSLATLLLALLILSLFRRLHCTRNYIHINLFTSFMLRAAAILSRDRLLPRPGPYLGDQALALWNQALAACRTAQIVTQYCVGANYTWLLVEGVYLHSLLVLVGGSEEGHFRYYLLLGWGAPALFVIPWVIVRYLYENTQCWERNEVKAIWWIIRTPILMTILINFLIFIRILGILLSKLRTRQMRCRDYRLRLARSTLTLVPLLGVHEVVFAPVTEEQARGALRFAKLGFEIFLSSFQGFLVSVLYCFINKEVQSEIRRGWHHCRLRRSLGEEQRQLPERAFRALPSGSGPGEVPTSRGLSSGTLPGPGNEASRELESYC
- assay.explanation: cell-based or functional assay
Non-standard residues stand in square brackets, D forms with d. No end group written: not given here. Aib = CC(C)(N)C(=O)O
outcome.measure: EC50 CreLuc hGIPR 0.5% hP
// return the numeric value with its unit appended

Quick check: EC50 CreLuc hGIPR 0.5% hP of YXEGTFTSDYSIXLEKQAQXAFVQWLIKGGPSEPASLRHYYNWLTRQRY (Aib at 2, 13, 20; K28 side chain: C20DA-gGlu-gGlu-gGlu-gGlu-gGlu-OEG-OEG; C-terminal NH2) [Compound 111] ?
550 pM

Quick check: EC50 CreLuc hGIPR 0.5% hP of YXEGTFTSDYSIXLEKQAQXAFVEWLIKGGPSSGASLXHYYNWLTRQRY (Aib at 2, 13, 20, 38; K28 side chain: C20DA-gGlu-gGlu-gGlu-gGlu-gGlu-gGlu-eLys; C-terminal NH2) [Compound 129] ?
60 pM

Quick check: EC50 CreLuc hGIPR 0.5% hP of YXEGTFTSDYSIXLEGQAQXAFVEWLIKGGPSSGASLRHYYNWLTRQRY (Aib at 2, 13, 20; K28 side chain: C20DA-gGlu-gGlu-gGlu-gGlu-gGlu-gGlu-eLys; C-terminal NH2) [Compound 99] ?
910 pM

Quick check: EC50 CreLuc hGIPR 0.5% hP of Y[Aib]EGTFTSDYSI[Aib]LEKQAQ[Aib]AFVQWLIKGGPSSGASLRHYYNWLTRQRY-NH2 (not fully specified (residue 28)) [Compound 147] ?
190 pM

Quick check: EC50 CreLuc hGIPR 0.5% hP of Y[Aib]EGTFTSDYSI[Aib]LEKQAQ[Aib]AFVEWLLKGGPSSGASLRHYYNWLTRQRY-NH2 (not fully specified (residue 28)) [Compound 109] ?
90 pM
